Some binders, each annotated with its measured Kd.
Molecular target: T1, human tissue factor pathway inhibitor (TFPI) (human, UniProt P10646 29-304, limits assumed)
T1 construct: bought; also called hTFPI; human TFPI
T1 sequence (looked up): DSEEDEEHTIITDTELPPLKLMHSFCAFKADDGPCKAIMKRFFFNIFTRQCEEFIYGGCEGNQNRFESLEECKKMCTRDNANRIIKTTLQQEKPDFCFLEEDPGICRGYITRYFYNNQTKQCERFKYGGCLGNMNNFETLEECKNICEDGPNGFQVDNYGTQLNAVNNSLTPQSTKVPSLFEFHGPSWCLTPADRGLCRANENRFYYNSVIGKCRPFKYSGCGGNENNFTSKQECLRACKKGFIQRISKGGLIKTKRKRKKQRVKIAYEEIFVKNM
Test: SPR, TFPI immobilized
Give just the number in nM; leave the unit off.

BINDER	QUANTITATIVE RESULT
B32.5 (4B7 HC D62R+Y112D/LC D33F+N35I) (Fab, V domains shown) VH: QVQLQQSGPGLVKPSQTLSLTCAISGDSVSSNSAAWSWIRQSPGRGLEWLGIIYKRSKWYNRYAVSVKSRITINPDTSKNQFSLQLNSVTPEDTAVYYCARWHSDKHWGFDDWGQGTLVTVSS VL: DIVMTQSPLSLPVTPGEPASISCRSSQSLVFSFGITYLNWYLQKPGQSPQLLIYKGSNRASGVPDRFSGSGSGTDFTLKISRVEAEDVGVYYCQQYDSYPLTFGQGTKVEIKR	0.0148
4B7 wild-type Fab (Fab, V domains shown, Fab with HA (or c-myc) and 6xHis tag at the C-terminus of the heavy chain; also called 4B7wt; parental 4B7) VH: QVQLQQSGPGLVKPSQTLSLTCAISGDSVSSNSAAWSWIRQSPGRGLEWLGIIYKRSKWYNDYAVSVKSRITINPDTSKNQFSLQLNSVTPEDTAVYYCARWHSDKHWGFDYWGQGTLVTVSS VL: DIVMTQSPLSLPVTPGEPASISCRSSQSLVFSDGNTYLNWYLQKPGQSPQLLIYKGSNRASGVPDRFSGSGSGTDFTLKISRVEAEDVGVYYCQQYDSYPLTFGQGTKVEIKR	11.1

Okay, now this binder:
Item under review: B18.5 (4B7 HC N32D+D62Q+Y112D/LC F31I+D33F+N35I) (Fab, V domains shown) VH: QVQLQQSGPGLVKPSQTLSLTCAISGDSVSSDSAAWSWIRQSPGRGLEWLGIIYKRSKWYNQYAVSVKSRITINPDTSKNQFSLQLNSVTPEDTAVYYCARWHSDKHWGFDDWGQGTLVTVSS VL: DIVMTQSPLSLPVTPGEPASISCRSSQSLVISFGITYLNWYLQKPGQSPQLLIYKGSNRASGVPDRFSGSGSGTDFTLKISRVEAEDVGVYYCQQYDSYPLTFGQGTKVEIKR . Reported Kd?
0.026

The reported measurements were obtained from patent USRE47150.
